Values compiled from PubChem BioAssay AID1159580.

# assay method text: chemical genetic growth profiling, strain panel (AID 1159580);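 also: tested at 20 µM; growth read once vehicle control cultures reached saturation at 30 °C; 1 = growth at the plate median or of vehicle wells; lower values mean less growth of the strain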
# test parameters: S. cerevisiae deletion strains, growth OD, locus YMR058W, strain fet3, stronger effect = lower value
In all, about 5,500 compounds went through this assay and about 2,000 (36%) were called active. About 18% were inconclusive and are not listed. Some of the results follow.
Attribute: normalized growth
value kind: normalized growth

- CC(=O)Oc1ccccc1C(=O)Oc1ccccc1C(=O)O: 1.01 (inactive)
- C[C@@H]1CC[C@@]23CCC4(C)[C@@](C=CC5[C@@]6(C)CC[C@H](O)C(C)(C)C6CC[C@]54C)(OC2=O)C3[C@H]1C (stereo partly drawn): 1 (inactive)
- CC1(C)C(=O)CC[C@@]2(C)C1C[C@@H](O)[C@@]1(C)C3=CC(=O)O[C@@H](c4ccoc4)[C@]3(C)CCC21 (stereo partly drawn): 1.01 (inactive)
- CCc1ccc2c(O)c3c(cc2c1C(=O)OC)C(=O)c1c(O)ccc(O)c1C3=O: 0.762 (active)
- CC[C@@]1(O)C(=O)OCc2c1cc1n(c2=O)Cc2cc3ccccc3nc2-1: 0.705 (active)
- C[C@@H]1CC[C@@]23CCC4(C)[C@@](C=CC5[C@@]6(C)CCC(=O)C(C)(C)C6CC[C@]54C)(OC2=O)C3[C@H]1C (stereo partly drawn): 1.01 (inactive)
- Oc1ccc2c3c1OC1[C@@H](O)CC[C@@]4(O)[C@@H](C2)N(CC2CCC2)CC[C@]314 (stereo partly drawn): 1.02 (inactive)
- CC(=O)N1CCN(c2ccc(OCC3CO[C@](Cn4ccnc4)(c4ccc(Cl)cc4Cl)O3)cc2)CC1 (stereo partly drawn): 0.0959 (active)
- COc1c(O)cc2c(c1O)[C@H]1O[C@H](CO)[C@@H](O)[C@H](O)[C@@H]1OC2=O: 1.01 (inactive)
- CC(C)=CC1C(CO)C1(C)C (stereo not drawn): 1.01 (inactive)
- COC(=O)N/N=C\c1c[n+]([O-])c2ccccc2[n+]1[O-]: 0.883 (active)
- CCCc1nc(C)c2c(=O)[nH]c(-c3cc(S(=O)(=O)N4CCN(CC)CC4)ccc3OCC)nn12: 0.954 (inactive)
- NC[C@H]1O[C@H](OC2[C@@H](N)C[C@@H](N)[C@H](O[C@H]3O[C@H](CO)[C@@H](O)[C@H](N)[C@H]3O)[C@H]2O)[C@H](O)[C@@H](O)[C@@H]1O (stereo partly drawn): 1 (inactive)
- COC(=O)C(N)CS (stereo not drawn): 0.963 (inactive)
- O=c1c2cc(O)c(O)cc2oc2cc(O)c(C3O[C@H](CO)[C@H](O)[C@@H](O)[C@H]3O)c(O)c12 (stereo partly drawn): 1.01 (inactive)
- COc1cc(C(=O)N2CCOCC2)cc(OC)c1OC: 0.987 (inactive)
- CC(=O)O[C@@H]1CC2C(C)(CC[C@H](O)C2(C)C)C2CC[C@]3(C)C(=CC(=O)O[C@H]3c3ccoc3)C21C (stereo partly drawn): 1.01 (inactive)
- CC(=O)OCC(=O)[C@@]1(O)CCC2C3C[C@H](C)C4=CC(=O)C=CC4(C)C3[C@@H](O)CC21C (stereo partly drawn): 1.02 (inactive)

###

# assay method text: chemical genetic growth profiling, strain panel (AID 1159580);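 also: tested at 20 µM; growth read once vehicle control cultures reached saturation at 30 °C; 1 = growth at the plate median or of vehicle wells; lower values mean less growth of the strain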
# test parameters: S. cerevisiae deletion strains, growth OD, locus YJL154C, strain vps35
Screen size: about 5,500 compounds; about 2,000 (36%) were called active. Inconclusive results (about 18%) are left out. Rule as the data show it: active = normalized growth mostly below about 0.91 (no sharp cut-off); inconclusive = no clear call, values can overlap the other calls; inactive = mostly above about 0.92. The list shows a part of the results.
Outcomes: yes (1) for active, no (0) for inactive

• NC(=O)c1cc([N+](=O)[O-])cc([N+](=O)[O-])c1 = no (0)
• CC1=CC(=O)C(C(C)C)=CC1=O = no (0)
• COC(=O)CC1C(C)(C)C(OC(C)=O)[C@@H]2[C@@H](OC(C)=O)[C@]34O[C@@]2(O)[C@]1(C)C3CC[C@]1(C)C4=CC(=O)O[C@H]1c1ccoc1 (stereo partly drawn) = no (0)
• NC(=O)c1ccc([N+](=O)[O-])cc1Cl = no (0)
• O=C(Oc1ccccc1C(=O)O)c1ccccc1O = no (0)
• C=CCSSSCC=C = no (0)
• COP(N)(=O)SC (stereo not drawn) = no (0)
• CC(C)=CC1C(CO)C1(C)C (stereo not drawn) = no (0)
• CC(=O)N1CCN(c2ccc(OCC3CO[C@](Cn4ccnc4)(c4ccc(Cl)cc4Cl)O3)cc2)CC1 (stereo partly drawn) = yes (1)
• COc1cc2c(cc1OC)-c1c(oc3cc(O)cc(O)c3c1=O)CO2 = no (0)
• COC(=O)NC(=S)Nc1ccccc1NC(=S)NC(=O)OC = no (0)
• C=CCSCC=C = no (0)
• CN(C)CC[C@H](c1ccc(Cl)cc1)c1ccccn1 = no (0)
• COc1ccc(-c2cc(=O)c3c(O)cc(O)c(-c4cc(-c5cc(=O)c6c(O)cc(O)cc6o5)ccc4OC)c3o2)cc1 = no (0)
• CN(C)C(=O)C(CCN1CCC(O)(c2ccc(Cl)cc2)CC1)(c1ccccc1)c1ccccc1 = no (0)
• Cc1c(C(N)=O)cc([N+](=O)[O-])cc1[N+](=O)[O-] = no (0)
• C=CCSC[C@@H](N)C(=O)O = no (0)
• CCc1ccc2c(O)c3c(cc2c1C(=O)OC)C(=O)c1c(O)ccc(O)c1C3=O = no (0)
• O=C(Oc1cccc2cccnc12)c1ccccc1 = no (0)
• CCCc1nc(C)c2c(=O)[nH]c(-c3cc(S(=O)(=O)N4CCN(CC)CC4)ccc3OCC)nn12 = no (0)
• CC(C)C[C@@H](NC(=O)OCC1c2ccccc2-c2ccccc21)C(=O)O = no (0)
• COc1cc(O)c2c(=O)cc(-c3ccc(OC)c(-c4c(O)cc(O)c5c(=O)cc(-c6ccc(O)cc6)oc45)c3)oc2c1 = no (0)
• CC1=C2C(O)C(=O)OC3CC4C(C)(C)C(=O)C=C[C@]4(C)C(CC1)[C@]23C (stereo partly drawn) = no (0)
